System: Staphylococcus aureus
Assay info: Antibacterial activity against Methicillin-resistant Staphylococcus aureus N 315 after 24 hrs by two-fold serial dilution method
Type: functional
Condition: N 315, 24 h
Entries and their MIC

>  <Compound>
COC(=O)C(C)NP(=O)(OCCN(C)c1cc(=O)oc2c(C)cccc12)Oc1ccccc1 (configuration not stated)

>  <Readout unit>
mg/L

>  <MIC>
128

$$$$
>  <Compound>
COC(=O)C(NP(=O)(OCCN(C)c1cc(=O)oc2c(C)cccc12)Oc1ccccc1)C(C)C (configuration not stated)

>  <Readout unit>
mg/L

>  <MIC>
32

$$$$
>  <Compound>
COC(=O)C(Cc1ccccc1)NP(=O)(OCCN(C)c1cc(=O)oc2cc(C)ccc12)Oc1ccccc1 (configuration not stated)

>  <Readout unit>
mg/L

>  <MIC>
2

$$$$
>  <Compound>
COC(=O)C(C)NP(=O)(OCCN(C)c1cc(=O)oc2ccc(C)cc12)Oc1ccccc1 (configuration not stated)

>  <Readout unit>
mg/L

>  <MIC>
256

$$$$
>  <Compound>
COC(=O)C(NP(=O)(OCCN(C)c1cc(=O)oc2ccc(C)cc12)Oc1ccccc1)C(C)C (configuration not stated)

>  <Readout unit>
mg/L

>  <MIC>
32

$$$$
>  <Compound>
COC(=O)C(NP(=O)(OCCN(C)c1cc(=O)oc2ccccc12)Oc1ccccc1)C(C)C (configuration not stated)

>  <Readout unit>
mg/L

>  <MIC>
256

$$$$
>  <Compound>
COC(=O)CNP(=O)(OCCN(C)c1cc(=O)oc2ccc(C)cc12)Oc1ccccc1 (configuration not stated)

>  <Readout unit>
mg/L

>  <MIC>
256

$$$$
>  <Compound>
COC(=O)C(C)NP(=O)(OCCN(C)c1cc(=O)oc2ccccc12)Oc1ccccc1 (configuration not stated)

>  <Readout unit>
mg/L

>  <MIC>
512

$$$$
>  <Compound>
CN[C@@H]1[C@H](O[C@H]2[C@H](O[C@H]3[C@H](O)[C@@H](O)[C@H](N=C(N)N)[C@@H](O)[C@@H]3N=C(N)N)O[C@@H](C)[C@]2(O)C=O)O[C@@H](CO)[C@H](O)[C@H]1O

>  <Readout unit>
mg/L

>  <MIC>
4

$$$$
>  <Compound>
COC(=O)C(NP(=O)(OCCN(C)c1cc(=O)oc2cc(C)ccc12)Oc1ccccc1)C(C)C (configuration not stated)

>  <Readout unit>
mg/L

>  <MIC>
128

$$$$
>  <Compound>
COC(=O)C(Cc1ccccc1)NP(=O)(OCCN(C)c1cc(=O)oc2ccccc12)Oc1ccccc1 (configuration not stated)

>  <Readout unit>
mg/L

>  <MIC>
128

$$$$
>  <Compound>
COC(=O)C(Cc1ccccc1)NP(=O)(OCCN(C)c1cc(=O)oc2ccc(C(C)(C)C)cc12)Oc1ccccc1 (configuration not stated)

>  <Readout unit>
mg/L

>  <MIC>
128

$$$$
>  <Compound>
COC(=O)C(NP(=O)(OCCN(C)c1cc(=O)oc2ccc(C(C)(C)C)cc12)Oc1ccccc1)C(C)C (configuration not stated)

>  <Readout unit>
mg/L

>  <MIC>
16

$$$$
>  <Compound>
COC(=O)C(C)NP(=O)(OCCN(C)c1cc(=O)oc2ccc(C(C)(C)C)cc12)Oc1ccccc1 (configuration not stated)

>  <Readout unit>
mg/L

>  <MIC>
1

$$$$
>  <Compound>
COC(=O)C(Cc1ccccc1)NP(=O)(OCCN(C)c1cc(=O)oc2c(C)cccc12)Oc1ccccc1 (configuration not stated)

>  <Readout unit>
mg/L

>  <MIC>
1

$$$$
>  <Compound>
CC1COc2c(N3CCN(C)CC3)c(F)cc3c(=O)c(C(=O)O)cn1c23 (configuration not stated)

>  <Readout unit>
mg/L

>  <MIC>
1

$$$$
>  <Compound>
COC(=O)C(C)NP(=O)(OCCN(C)c1cc(=O)oc2cc(C)ccc12)Oc1ccccc1 (configuration not stated)

>  <Readout unit>
mg/L

>  <MIC>
256

$$$$

// provenance: ChEMBL document CHEMBL3758177
